These entries and their values trace back to paper PMC9482650.

molecular target: DLG1_1, Q12959; test: holdup assay; set-up: key: below the threshold = too weak to quantify, mostly under pKd 3.1 to 4; conditions: plain residues with an end cap or a label only (N-terminal biotin on a linker: ado-ado)
observed_property: pKd
Give the figure only, with no unit attached.

>>> reported_value("WAKEKQHTRL [SLC17A1, Q14916]")
3.64
>>> reported_value("KSRPENGTVC [TMEM178B, H3BS89]")
3.71
>>> reported_value("EPAKETTTNV [SLC2A3, P11169]")
3.94
>>> reported_value("YAEKRMLTEV [KCNA6, P17658]")
3.91
>>> reported_value("PLPPEEESWV [GAS2L2, Q8NHY3]")
4.25

IN: Tell me its pKd given IQISELETNV [SLC1A7, O00341] as the entry.
OUT: 4.34

IN: Answer with the recorded pKd for the binder listed here: QRYPGNQTTC [CCL24, O00175]
OUT: 3.71
